Literature survey of pIC50 (system: Oxysterols receptor LXR-alpha (Homo sapiens)).
pIC50: −log10 of the molar value.
assay-readout: pIC50

[P] CCc1nc2c(C(F)(F)F)cccn2c1-c1cccc(Oc2cccc(S(=O)(=O)CC)c2)c1
[Q] O=C(O)c1cccc(-c2cccc(C3CN(S(=O)(=O)c4ccccc4)C(=O)N3c3ccccc3)c2)c1 (centres unmarked)
[R] O=C(O)c1cccc(NCc2cccc(-c3c(Cc4ccccc4)cnc4c(C(F)(F)F)cccc34)c2)c1
Kindly provide a descending ordering of the above compounds based on their pIC50. Your reply should list the labels following the order given in the request.
P, R, Q
(P: 6.49, R: 5.93, Q: 5.24)
